System: S. aureus strain ATCC 13709 (methicillin-susceptible)
assay_method_text: Murine model for lethal bacteremic peritonitis
Format: in vivo, female Swiss-Webster mice
conditions: Staphylococcus aureus, ATCC13709; Dose 2.5 mg/kg, SC, 72 h; read-out: Survivors
Counter-ions that a name gives are not always drawn.
value_type: responders at 2.5 mg/kg (%)
Give just the number in %; leave the unit off.

responders at 2.5 mg/kg for NCCSc1cnccc1SC1=C(C(=O)O)N2C(=O)[C@@H](NC(=O)/C(=N\O)c3nc(N)sc3Cl)[C@H]2SC1 [Cmpd 30, trifluoroacetic acid salt] is 100

responders at 2.5 mg/kg for NCCSCc1cnccc1SC1=C(C(=O)O)N2C(=O)[C@@H](NC(=O)/C(=N\OCCF)c3nc(N)sc3Cl)[C@H]2SC1.O=C(O)C(F)(F)F [Cmpd 33, trifluoroacetic acid salt] is 90

responders at 2.5 mg/kg for NCC(O)CSCc1cnccc1SC1=C(C(=O)O)N2C(=O)[C@@H](NC(=O)/C(=N\O)c3nc(N)sc3Cl)[C@H]2SC1 (some centres unmarked) [Cmpd 32, trifluoroacetic acid salt] is 50

responders at 2.5 mg/kg for N=C(N)NCCSCc1cnccc1SC1=C(C(=O)O)N2C(=O)[C@@H](NC(=O)/C(=N\O)c3csc(N)n3)[C@H]2SC1 [Cmpd 14, trifluoroacetic acid salt] is 90

responders at 2.5 mg/kg for Nc1nc(/C(=N/O)C(=O)N[C@@H]2C(=O)N3C(C(=O)O)=C(Sc4ccncc4CSC4CCNC4)CS[C@H]23)cs1 (some centres unmarked) [Cmpd 17, trifluoroacetic acid salt] is 30
